These entries and their values trace back to patent US9282741B2.

# TEST_NAME: log P determination via capillary electrophorese (cePro9600)
# Type: physicochemical
# CONDITION_CONTEXT: pH = 10.0
READOUT: logP

INSERT INTO results (compound, result_value) VALUES
  ('CCCS(C)=NC(=O)c1cc(Cl)cc(C)c1NC(=O)c1cc(C(F)(F)F)nn1-c1ncccc1Cl (stereo not drawn)', 'logP: 3.2 [pH = 10.0]'),
  ('Cc1cc(Cl)cc(C(=O)N=S(C(C)C)C(C)C)c1NC(=O)c1cc(Br)nn1-c1ncccc1Cl', 'logP: 2.9 [pH = 10.0]'),
  ('CCCS(C)=NC(=O)c1cc(I)cc(C)c1NC(=O)c1cc(Br)nn1-c1ncccc1Cl (racemic)', 'logP: 3.2 [pH = 10.0]'),
  ('C#CCOc1cc(C(=O)Nc2c(C)cc(Cl)cc2C(=O)N=S(C)c2ccc(F)cc2)n(-c2ncccc2Cl)n1 (stereo not drawn)', 'logP: 2.9 [pH = 10.0]'),
  ('CCCCCS(CCO)=NC(=O)c1cccc(C)c1NC(=O)c1cc(C(F)(F)F)nn1-c1ncccc1Cl (stereo not drawn)', 'logP: 3.4 [pH = 10.0];');

So what's the measured logP for this one? Cc1cc(I)cc(C(=O)N=S2CCSC2)c1NC(=O)c1cc(C(F)(F)F)nn1-c1ncccc1Cl (stereo not drawn) logP: 3.5 [pH = 10.0];

So what's the measured logP for this one? CCCCCS(CCO)=NC(=O)c1cc(Cl)cc(C)c1NC(=O)c1cc(Br)nn1-c1ncccc1Cl (stereo not drawn) logP: 3.4 [pH = 10.0];

So what's the measured logP for this one? Cc1cc(I)cc(C(=O)N=S(C)c2ccc(F)cc2)c1NC(=O)c1cc(Br)nn1-c1ncccc1Cl (stereo not drawn) logP: 3.5 [pH = 10.0];

* * *

# TEST_NAME: log P determination via capillary electrophorese (cePro9600)
# Format: physicochemical
# CONDITION_CONTEXT: pH = 10.0
# Protocol: log P determinations were performed via capillary electrophorese on a cePro9600™ from CombiSep.
READOUT: logP

Known results for compounds:
INSERT INTO assay_data (compound, readout, result_value) VALUES
  ('Cc1cccc(C(=O)N=S(C)c2ccc(F)cc2)c1NC(=O)c1cc(C(F)(F)F)nn1-c1ncccc1Cl (stereo not drawn)', 'logP', 'logP: 3.2 [pH = 10.0];'),
  ('Cc1cc(Cl)cc(C(=O)N=S(C)c2ccc(F)cc2)c1NC(=O)c1cc(Br)nn1-c1ncccc1Cl (stereo not drawn)', 'logP', 'logP: 3.2 [pH = 10.0];'),
  ('Cc1cc(I)cc(C(=O)N=S2CCSC2)c1NC(=O)c1cc(Br)nn1-c1ncccc1Cl (stereo not drawn)', 'logP', 'logP: 3.3 [pH = 10.0];'),
  ('Cc1cc(I)cc(C(=O)N=S2CCCCC2)c1NC(=O)c1cc(Br)nn1-c1ncccc1Cl', 'logP', 'logP: 3.4 [pH = 10.0];'),
  ('CCS(C)=NC(=O)c1cc(I)cc(C)c1NC(=O)c1cc(C(F)(F)F)nn1-c1ncccc1Cl (stereo not drawn)', 'logP', 'logP: 3.3 [pH = 10.0];'),
  ('Cc1cccc(C(=O)N=S(C)c2ccc(F)cc2)c1NC(=O)c1cc(Br)nn1-c1ncccc1Cl (stereo not drawn)', 'logP', 'logP: 2.7 [pH = 10.0];'),
  ('CCCCCS(CCO)=NC(=O)c1cc(Cl)cc(C)c1NC(=O)c1cc(C(F)(F)F)nn1-c1ncccc1Cl (stereo not drawn)', 'logP', 'logP: 3.6 [pH = 10.0];'),
  ('CCS(CCCl)=NC(=O)c1cc(I)cc(C)c1NC(=O)c1cc(Br)nn1-c1ncccc1Cl (stereo not drawn)', 'logP', 'logP: 3.2 [pH = 10.0];');

Alright, here's another compound for you.
So what's the measured logP for this one? `Cc1cc(I)cc(C(=O)N=S2CCCCC2)c1NC(=O)c1cc(C(F)(F)F)nn1-c1ncccc1Cl` logP: 3.6 [pH = 10.0];

* * *

# TEST_NAME: log P determination via capillary electrophorese (cePro9600)
# Format: physicochemical
# CONDITION_CONTEXT: pH = 10.0
READOUT: logP

INSERT INTO results (compound, readout, result_value) VALUES
  ('Cc1cc(Cl)cc(C(=O)N=S(C)C)c1NC(=O)c1cc(C(F)(F)F)nn1-c1ncccc1Cl', 'logP', 'logP: 2.9 [pH = 10.0];'),
  ('CCS(C)=NC(=O)c1cc(Cl)cc(C)c1NC(=O)c1cc(C(F)(F)F)nn1-c1ncccc1Cl (stereo not drawn)', 'logP', 'logP: 2.9 [pH = 10.0];'),
  ('Cc1cc(I)cc(C(=O)N=S2CCCC2)c1NC(=O)c1cc(Br)nn1-c1ncccc1Cl', 'logP', 'logP: 2.9 [pH = 10.0];');
